Exercise: state measured protein stability index for each of the variants provided.
B1: ETS1 (parent)
chain: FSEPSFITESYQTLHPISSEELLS

- Variants of: B1
- measurement-description: protein stability index of a GFP-peptide fusion (GPS, HEK-293T) (PSI 1-6); higher = more stable;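 also: lentivirally expressed fusions sorted by FACS into six bins by GFP to DsRed ratio, PSI derived from sequencing read proportions per bin multiplied by bin number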
- condition-parameters: c terminus: a fixed tail appended
Please reply with the value in numeric form only.

Recorded protein stability index (variant P16I ): 1.6

Recorded protein stability index (variant E21V ): 2.2

Recorded protein stability index (variant S19G ): 1.99

Recorded protein stability index (variant E20V ): 2.04

Recorded protein stability index (variant I17A ): 2.33

Recorded protein stability index (variant Y11M ): 2.02

Recorded protein stability index (variant S18T ): 1.97

Recorded protein stability index (variant L23Q ): 2.59

Recorded protein stability index (variant S24G ): 1.86

Recorded protein stability index (variant S5M ): 2.37

Recorded protein stability index (variant S18G ): 1.8

Recorded protein stability index (variant E21C ): 1.79

Recorded protein stability index (variant P4W ): 2.17

Recorded protein stability index (variant T13W ): 2.54

Recorded protein stability index (variant E20L ): 1.95

Recorded protein stability index (variant F6L ): 3.22

Recorded protein stability index (variant E9Y ): 1.77

Recorded protein stability index (variant S10G ): 1.72

Recorded protein stability index (variant E3H ): 2.17

Recorded protein stability index (variant E9P ): 1.75

Recorded protein stability index (variant S2G ): 2.63

Recorded protein stability index (variant S19Y ): 1.7

Recorded protein stability index (variant S24R ): 1.86

Recorded protein stability index (variant E20Q ): 2.12

Recorded protein stability index (variant F1Q ): 4.43

Recorded protein stability index (variant E9G ): 1.88

Recorded protein stability index (variant T13M ): 1.28

Recorded protein stability index (variant I7D ): 4.01

Recorded protein stability index (variant S24Q ): 2.16

Recorded protein stability index (variant L22C ): 1.97

Recorded protein stability index (variant S18D ): 2.33

Recorded protein stability index (variant T8R ): 2.12

Recorded protein stability index (variant F6Q ): 4.76

Recorded protein stability index (variant S5N ): 2.34

Recorded protein stability index (variant Y11L ): 1.71

Recorded protein stability index (variant F1I ): 4.03

Recorded protein stability index (variant I17M ): 1.78

Recorded protein stability index (variant E21A ): 1.53

Recorded protein stability index (variant Q12Y ): 1.56
